experiment: qHTS Assay for Lipid Storage Modulators in Drosophila S3 Cells; conditions: BODIPY lipid droplet fluorescence, 18-24 h, cells fed with added oleic acid; series mostly up to 46.1 µM
Hit rate of the full screen: of about 320,000 compounds, about 2,100 (0.66%) were called active. Roughly 53% stayed inconclusive and do not appear here. Calls come from the whole dose curve; as a rule, active = well fitted inhibition curve with a large enough effect in the signal ratio, with a control signal flat (not every such curve was filed as active); inconclusive = small, poorly fitted or top-dose-only effect, or effect the other way, or a change in a side signal; inactive = flat fitted curve, though single readings scatter; the % refers to the signal ratio. The full list was thinned out, with actives kept by preference.
Labels: active, inactive

compound=CN(C)S(=O)(=O)c1cccc(NC(=O)COC(=O)C2(c3ccccc3F)CCCC2)c1 answerlabel=active
compound=CCOc1cc(N2CCOCC2)c(OCC)cc1NC(=O)CSc1n[nH]c(N)n1 answerlabel=inactive
compound="CCC(C)OC(=O)C1=C(C)OC23OC(N)=C(C#N)C12C(=O)c1ccccc13 (stereo not drawn)" answerlabel=inactive
compound=COc1ccc(C(=O)Nc2ccc(C(F)(F)F)n(C)c2=O)cc1 answerlabel=inactive
compound="Cc1ccccc1S(=O)Cc1ccc(C(=O)NCCCN2CCCCC2)o1 (stereo not drawn)" answerlabel=active
compound=CN(C)S(=O)(=O)c1cccc(NC(=O)COC(=O)CNC(=O)c2ccccc2F)c1 answerlabel=inactive
compound="CCCC(C(=O)NCCC(C)C)N(Cc1ccccc1)C(=O)c1snc(C(N)=O)c1N (stereo not drawn)" answerlabel=active
compound=CC(C)(C)NC(=O)COC(=O)c1ccccc1Oc1ccccc1 answerlabel=inactive
compound=COc1cccc(/C=N/NC(=O)c2nc(-c3ccccc3)cc(-c3ccccc3)n2)c1O answerlabel=inactive
compound=CCOc1ccc(N2C(=O)c3cccnc3C2=O)cc1 answerlabel=inactive
compound=CCOc1ccc(S(=O)(=O)N2CCN(C(=O)c3cc(C4CC4)nn3-c3ccccc3)CC2)cc1 answerlabel=inactive
compound="CC(NC(=O)CN(c1ccc(Br)cc1)S(C)(=O)=O)c1ccccc1 (stereo not drawn)" answerlabel=inactive
compound="CCCC(C(=O)NCCC(C)C)N(Cc1ccc(OC)cc1)C(=O)c1snc(C(N)=O)c1N (stereo not drawn)" answerlabel=inactive
compound=COc1cccc(CNC(=O)N[C@@H](C)C(=O)O)c1 answerlabel=inactive
compound=CCOCCCNc1c2c(nc3cc(-c4ccc(F)cc4)nn13)CCC2 answerlabel=inactive
compound=COc1ccccc1C(=O)N1CCN(Cc2nc(CC3CC3)no2)CC1 answerlabel=inactive
compound=N#Cc1c(N)nc2c(c1-c1ccc(F)cc1)c(=O)nc1sccn12 answerlabel=inactive
compound=COc1ccc(/C=N/NC(=O)c2nc(-c3ccccc3)cc(-c3ccccc3)n2)cc1 answerlabel=inactive
compound="CCC(C)[C@H](NC(=O)NCc1ccccc1Cl)C(=O)OC (stereo partly drawn)" answerlabel=inactive
compound=COC(=O)[C@@H](NC(=O)NCc1ccccc1F)C(C)C answerlabel=active
compound=O=C(/C=C/c1ccc(F)cc1)NCc1cccs1 answerlabel=inactive
compound=COc1ccc(CNC(=O)C2=CC(c3ccc(OC)cc3)=NS(=O)(=O)N2C)cc1 answerlabel=inactive
compound=O=C(c1ccc(F)cc1)C1CCN(Cc2ccc(F)cc2)CC1 answerlabel=inactive
compound=CCOc1ccc2ccccc2c1/C=N\NC(=O)c1ccc([N+](=O)[O-])cc1 answerlabel=active
compound=COc1ccc2c(c1)CCc1c(C(=O)NCc3ccc(Cl)cc3)noc1-2 answerlabel=inactive
compound="CCC(C(=O)NC(C)(C)C)N(Cc1ccccc1Cl)C(=O)c1snc(C(N)=O)c1N (stereo not drawn)" answerlabel=inactive
compound="O=C(NCCN1CCOCC1)c1ccc(CS(=O)c2ccccc2Cl)o1 (stereo not drawn)" answerlabel=active
compound="CCOC(=O)C1CCCN(CCC(C)c2ccccc2)C1 (stereo not drawn)" answerlabel=inactive
compound="CC(NC(=O)CN(c1ccc(Cl)cc1)S(C)(=O)=O)c1ccccc1 (stereo not drawn)" answerlabel=inactive
compound="COc1ccc(C(C(=O)NC2CCCC2)N(C(=O)c2snc(C(N)=O)c2N)c2cc(C)ccc2OC)cc1OC (stereo not drawn)" answerlabel=inactive
compound=CN(C)S(=O)(=O)c1cccc(NC(=O)CSc2nnnn2-c2ccccc2)c1 answerlabel=inactive
compound=Cc1ccc(C(=O)Nc2ccc(C(F)(F)F)n(C)c2=O)cc1 answerlabel=inactive
compound=NS(=O)(=O)c1cccc(NC(=O)COC(=O)C2(c3cccc(F)c3)CCCC2)c1 answerlabel=inactive
compound=O=c1c2cc3c(nc2[nH]c(=S)n1-c1ccccc1)CCCC3 answerlabel=inactive
compound=CC(=O)c1ccccc1NC(=O)COC(=O)/C(=C/c1ccccc1)n1nnnc1C answerlabel=active
compound="CCC(C)[C@H](NC(=O)NCc1cccc(OC)c1)C(=O)O (stereo partly drawn)" answerlabel=active
compound=CC(=O)c1ccccc1NC(=O)COC(=O)c1c(C)nn(-c2ccccc2)c1C answerlabel=inactive
compound=CC(C)(C)NC(=O)COC(=O)C1c2ccccc2Oc2ccccc21 answerlabel=inactive
compound="CC(NC(=O)CN(c1ccc(F)cc1)S(C)(=O)=O)c1ccccc1 (stereo not drawn)" answerlabel=active
compound=O=[N+]([O-])c1cc(C(F)(F)F)ccc1N1CCC(O)CC1 answerlabel=inactive
compound=Cc1ccccc1S(=O)(=O)Cc1ccc(C(=O)NCCCN2CCCC2)o1 answerlabel=inactive
compound="CCN1CCN(CCNC(=O)c2ccc(CS(=O)c3ccc(Cl)cc3)o2)CC1 (stereo not drawn)" answerlabel=inactive
compound=O=C(c1cc(C2CC2)nn1-c1ccccc1)N1CCN(S(=O)(=O)c2cccc(F)c2)CC1 answerlabel=inactive
